stated-conditions: cynomolgus monkey, in vivo, sc, 40 mg/kg
observable: Albumin (g/dL)
Give just the number in g/dL; leave the unit off.

| substance | Albumin [g/dL] |
| --- | --- |
| ISIS 584468: antisense compound targeted to human AR (CATTGTACTATGCCAG; 3-10-3 (S)-cEt gapmer, further chemistry not given here) | 4.0 |

Quick note, Albumin for TTGATTTAATGGTTGC [ISIS 560131] (MOE and (S)-cEt gapmer chemistry, further chemistry not given here) landed at 4.0

Quick note, Albumin for ISIS 584163: antisense compound targeted to human AR (GAACATTATTAGGCTA; 3-10-3 (S)-cEt gapmer, further chemistry not given here) landed at 4.2

Quick note, Albumin for ISIS 584149: antisense compound targeted to human AR (GTCAATATCAAAGCAC; 3-10-3 (S)-cEt gapmer, further chemistry not given here) landed at 4.5

Quick note, Albumin for TGATTTAATGGTTGCA [ISIS 569216] (cEt/MOE gapmer chemistry, further chemistry not given here) landed at 3.7

Quick note, Albumin for TGATTTAATGGTTGCA [ISIS 569236] (cEt/MOE gapmer chemistry, further chemistry not given here) landed at 4.1

Quick note, Albumin for TTGATTTAATGGTTGC [ISIS 579671] (cEt/MOE gapmer chemistry, further chemistry not given here) landed at 4.0

---

Test system: AR mRNA
assay-method-text: Dose-dependent antisense inhibition of human AR in HuVEC cells (electroporation, qRT-PCR RTS3559, IC50)
Format: cell-based
stated-conditions: Table 31; 3000.0 nM, HuVEC, electroporation, approximately 16 hours
Oligonucleotides are written 5' to 3', each unit as a sugar letter and its base; * is a phosphorothioate linkage, no mark a phosphodiester; rarer units and linkages stand in square brackets, end groups in braces. Plain capitals give the bases only. k = constrained ethyl (cEt); [5mC] = 5-methylcytosine; d = 2'-deoxy (DNA)
Documented percent inhibition of AR, 3000.0 nM across a set of substances
Answer with the number, then the unit.

Below, each entry is followed by its recorded percent inhibition of AR, 3000.0 nM result.
| substance | observable | data-value |
| --- | --- | --- |
| 583700 (antisense kG*kA*kA*dG*dA*dG*dT*dT*d[5mC]*dA*dA*d[5mC]*dA*kG*kG*k[5mC]) [compound 583700] | percent inhibition of AR, 3000.0 nM | 71% |
| 583789 (antisense kT*kG*k[5mC]*dA*dT*dG*dG*dT*dG*d[5mC]*dT*dG*dG*k[5mC]*k[5mC]*kT) [compound 583789] | percent inhibition of AR, 3000.0 nM | 85% |
| 583731 (antisense k[5mC]*kG*k[5mC]*dG*d[5mC]*dA*d[5mC]*dG*d[5mC]*dT*d[5mC]*dT*dG*kG*kA*kA) [compound 583731] | percent inhibition of AR, 3000.0 nM | 58% |

Quick note, percent inhibition of AR, 3000.0 nM for 583799 (antisense kT*kG*k[5mC]*d[5mC]*dT*dT*d[5mC]*dG*dG*dA*dT*dA*d[5mC]*kT*kG*k[5mC]) [compound 583799] landed at 85%

Quick note, percent inhibition of AR, 3000.0 nM for 549458 (kG*kT*kT*dG*dA*dT*dT*dT*dA*dA*dT*dG*dG*kT*kT*kG) [compound 549458] landed at 98%

Quick note, percent inhibition of AR, 3000.0 nM for 583746 (antisense kT*kG*k[5mC]*dG*d[5mC]*dT*d[5mC]*dG*d[5mC]*dG*dG*d[5mC]*d[5mC]*kT*k[5mC]*kT) [compound 583746] landed at 67%

Quick note, percent inhibition of AR, 3000.0 nM for 583747 (antisense kG*k[5mC]*kT*dG*d[5mC]*dG*d[5mC]*dT*d[5mC]*dG*d[5mC]*dG*dG*k[5mC]*k[5mC]*kT) [compound 583747] landed at 69%
